Catalogue of compounds with associated logP^a)
assay: logP determination by HPLC on a reversed-phase column (C18); format: physicochemical; conditions: HPLC-MS method a), reversed-phase column (C18)
Provide a numeric answer; units are not to be included.

Field: example entries. Status: answers known.
mol=Cc1cc(C(F)(C(F)(F)F)C(F)(F)F)cc(C(F)(F)F)c1-n1cc(-c2cnc(Cl)c(C(=O)N(C)C3CC3)c2)cn1 recorded_value=4.5
mol=Cc1cc(C(F)(C(F)(F)F)C(F)(F)F)cc(C)c1-n1cc(-c2cnc(C3CC3)c(C(=O)NC3CC3)c2)cn1 recorded_value=4.2

[ask] Give logP^a) for the following compound: Cc1cc(C(F)(C(F)(F)F)C(F)(F)F)cc(C(F)(F)F)c1-n1cc(-c2cnc(C)c(C(=O)NC3CC3)c2)cn1
[reply] 3.5

* * *

experiment: logP determination by HPLC on a reversed-phase column (C18); assay type: physicochemical; settings: HPLC-MS method a)
measured.attribute: logP^a)
Provide a numeric answer; units are not to be included.

Field: example entries. Status: answers known.
mol=N#CC1(NC(=O)c2cccc(-c3cnn(-c4c(Cl)cc(C(F)(C(F)(F)F)C(F)(F)F)cc4Cl)c3)c2F)CC1 recorded_value=4.1
mol=N#CC1(NC(=O)c2cc(-c3cnn(-c4c(F)cc(C(F)(C(F)(F)F)C(F)(F)F)cc4F)c3)ccc2Cl)CC1 recorded_value=3.9
mol=O=C(NC1CC1)c1cc(-c2cnn(-c3c(F)cc(C(F)(C(F)(F)F)C(F)(F)F)cc3F)c2)ccc1Cl recorded_value=4.0
mol=CCc1cc(C(F)(F)C(F)(F)F)cc(C)c1-n1cc(-c2ccc(Cl)c(C(=O)NC3CC3)c2)cn1 recorded_value=4.3
mol=Cc1cc(C(F)(C(F)(F)F)C(F)(F)F)cc(C)c1-n1cc(-c2cc(C(=O)NC3(C#N)CC3)cc(C(F)(F)F)c2)cn1 recorded_value=4.7

[ask] Give logP^a) for the following compound: CCc1cc(C(F)(C(F)(F)F)C(F)(F)F)cc(C)c1-n1cc(-c2ccc(Cl)c(C(=O)NC3CC3)c2F)cn1
[reply] 4.6

* * *

Test system: Myzus persicae
Assay: Myzus persicae - spray test
Assay type: in vivo
Settings: application rate 100 g/ha; Chinese cabbage leaf discs; after 6 days
Description: Solvent: 78 parts by weight of acetone and 1.5 parts by weight of dimethylformamide Emulsifier: alkylaryl polyglycol ether To produce an appropriate active ingredient formulation, 1 part by weight of active ingredient is dissolved using the specified parts by weight of solvent and made up with water containing an emulsifier concentration of 1000 ppm until the desired concentration is attained. […] After 6 days, efficacy in % is determined. […]
measured.attribute: efficacy (%)
Give your result in % as a bare value.

Field: example entries. Status: answers known.
mol=CN(C(=O)c1cc(-c2cnn(-c3c(Cl)cc(C(F)(F)F)cc3Cl)c2)cnc1Cl)C1CC1 quantity_unit=% recorded_value=100
mol=O=C(NC1CC1)c1cc(-c2cnn(-c3c(Cl)cc(OC(F)(F)F)cc3Cl)c2)ccc1Cl quantity_unit=% recorded_value=100
mol=Cc1cc(C(F)(C(F)(F)F)C(F)(F)F)cc(C)c1-n1cc(-c2cnc(C)c(C(=O)N(C)C3CC3)c2)cn1 quantity_unit=% recorded_value=100

# evaluate next
[ask] Give efficacy for the following compound: Cc1ncc(-c2cnn(-c3c(Cl)cc(C(F)(C(F)(F)F)C(F)(F)F)cc3C(F)(F)F)c2)cc1C(=O)NC1CC1
[reply] 100

Taken from patent US10150737B2.
